pKi: −log10 of the molar value.
Target or system UniProt:P10415: recorded pKi listed per item.
Sequence (P10415 whole entry): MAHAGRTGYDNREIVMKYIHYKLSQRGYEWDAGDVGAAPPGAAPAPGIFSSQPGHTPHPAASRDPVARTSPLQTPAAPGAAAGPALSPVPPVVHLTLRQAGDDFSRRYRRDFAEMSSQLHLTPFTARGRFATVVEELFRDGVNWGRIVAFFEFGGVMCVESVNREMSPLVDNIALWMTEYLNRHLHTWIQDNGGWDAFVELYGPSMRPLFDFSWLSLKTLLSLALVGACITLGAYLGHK

{"molecule": "COCCNC(=O)c1cccc(-c2cccc(CN3O[C@@H](CO)[C@@H]([C@H](C)O)[C@H]3C(=O)N[C@H]3C[C@H]4C[C@@H]([C@@H]3C)C4(C)C)c2)c1", "system-name": "UniProt:P10415", "pKi": "> 6.10"}
{"molecule": "CC(C)[C@H](CN(C)C)NC(=O)c1cccc(-c2cccc(CN3O[C@@H](CO)[C@@H]([C@H](C)O)[C@H]3C(=O)N[C@H]3C[C@H]4C[C@@H]([C@@H]3C)C4(C)C)c2)c1", "system-name": "UniProt:P10415", "pKi": "> 6.10"}
{"molecule": "CC(O)C1C(CO)ON(Cc2cccc(CN(CCN(C)C)Cc3cccc(F)c3)c2)C1C(=O)NC1CC2CC(C1C)C2(C)C (centres unmarked)", "system-name": "UniProt:P10415", "pKi": "> 6.10"}
{"molecule": "COc1cccc(CN(Cc2cccc(CN3OC(CO)C(C(C)O)C3C(=O)NC3CC4CC(C3C)C4(C)C)c2)C(CC(C)C)CN(C)C)c1 (centres unmarked)", "system-name": "UniProt:P10415", "pKi": "> 6.10"}
{"molecule": "C[C@H](O)[C@@H]1[C@H](CO)ON(Cc2cccc(CN(CCN(C)C)Cc3ccccc3)c2)[C@@H]1C(=O)NC1C[C@H]2C[C@@H]([C@@H]1C)C2(C)C (some centres unmarked)", "system-name": "UniProt:P10415", "pKi": "> 6.10"}
{"molecule": "C[C@@H]1[C@@H](NC(=O)[C@@H]2[C@H]([C@H](C)O)[C@H](CO)ON2Cc2cccc(-c3cccc(C(=O)NCCN(C)C)c3)c2OCC2CC2)C[C@H]2C[C@@H]1C2(C)C", "system-name": "UniProt:P10415", "pKi": "> 6.10"}
{"molecule": "C[C@@H](O)[C@H]1[C@@H](CO)ON(Cc2cccc(C#CCNC(=O)c3ccccc3)c2)[C@H]1C(=O)NCc1ccc(-c2ccccc2)cc1", "system-name": "UniProt:P10415", "pKi": "< 4.30"}
{"molecule": "C[C@@H]1[C@@H](NC(=O)[C@@H]2[C@H]([C@H](C)O)[C@H](CO)ON2CCCCN(CCN(C)C)Cc2ccccc2)C[C@H]2C[C@@H]1C2(C)C", "system-name": "UniProt:P10415", "pKi": "5.22 to 6.10"}
{"molecule": "CC(O)C1C(CO)ON(Cc2cccc(CN(CCN(C)C)C(C)(C)c3ccccc3)c2)C1C(=O)NC1CC2CC(C1C)C2(C)C (centres unmarked)", "system-name": "UniProt:P10415", "pKi": "> 6.10"}
{"molecule": "C[C@@H]1C(NC(=O)[C@@H]2[C@H]([C@H](C)O)[C@H](CO)ON2Cc2cccc(-c3ccc(NC(=O)N(C)C)cc3)c2)C[C@@H]2CC1C2(C)C (some centres unmarked)", "system-name": "UniProt:P10415", "pKi": "> 6.10"}
{"molecule": "C[C@@H]1[C@@H](NC(=O)[C@@H]2[C@H]([C@H](C)O)[C@H](CO)ON2Cc2cccc(-c3cccc(C(=O)NCCN4CCN(C)CC4)c3)c2)C[C@H]2C[C@@H]1C2(C)C", "system-name": "UniProt:P10415", "pKi": "> 6.10"}
{"molecule": "COc1cccc(O)c1CN(Cc1cccc(CN2OC(CO)C(C(C)O)C2C(=O)NC2CC3CC(C2C)C3(C)C)c1)C(CC(C)C)CN(C)C (centres unmarked)", "system-name": "UniProt:P10415", "pKi": "> 6.10"}
{"molecule": "CC(O)C1C(CO)ON(Cc2cccc(CN(CCN(C)C)CC3=CCCCC3)c2)C1C(=O)NC1CC2CC(C1C)C2(C)C (centres unmarked)", "system-name": "UniProt:P10415", "pKi": "> 6.10"}
{"molecule": "C[C@@H]1[C@@H](NC(=O)[C@@H]2[C@H]([C@H](C)O)[C@H](CO)ON2CCCCN(CCc2ccccc2)CCN(C)C)C[C@H]2C[C@@H]1C2(C)C", "system-name": "UniProt:P10415", "pKi": "5.22 to 6.10"}
{"molecule": "C[C@@H]1[C@@H](NC(=O)[C@@H]2[C@H]([C@H](C)O)[C@H](CO)ON2Cc2cccc(-c3cccc(C(=O)N[C@H]4CCN(C)C4)c3)c2)C[C@H]2C[C@@H]1C2(C)C", "system-name": "UniProt:P10415", "pKi": "> 6.10"}
{"molecule": "CC(O)C1C(CO)ON(Cc2cccc(CN(Cc3ccccc3)C(CN(C)C)CC(C)(C)C)c2)C1C(=O)NC1CC2CC(C1C)C2(C)C (centres unmarked)", "system-name": "UniProt:P10415", "pKi": "> 6.10"}
{"molecule": "COc1c(CN2O[C@@H](CO)[C@@H]([C@H](C)O)[C@H]2C(=O)N[C@H]2C[C@H]3C[C@@H]([C@@H]2C)C3(C)C)cccc1-c1cccc(C(=O)N[C@H](CN(C)C)c2ccccc2)c1", "system-name": "UniProt:P10415", "pKi": "> 6.10"}
{"molecule": "CC(O)[C@H]1[C@@H](CO)ON(Cc2cccc(C#CC(O)c3ccc(F)cc3)c2)[C@H]1C(=O)NCCCN(C)c1ccccc1 (some centres unmarked)", "system-name": "UniProt:P10415", "pKi": "5.22 to 6.10"}
{"molecule": "CC(C)CC(CN(C)C)N(Cc1cccc(CN2OC(CO)C(C(C)O)C2C(=O)NC2CC3CC(C2C)C3(C)C)c1)CC1CCCC1 (centres unmarked)", "system-name": "UniProt:P10415", "pKi": "> 6.10"}
{"molecule": "C[C@@H]1[C@@H](NC(=O)[C@@H]2[C@H]([C@H](C)O)[C@H](CO)ON2Cc2cccc(NC(=O)N(C)[C@H](CC3CCCCC3)CN(C)C)c2)C[C@H]2C[C@@H]1C2(C)C", "system-name": "UniProt:P10415", "pKi": "> 6.10"}
{"molecule": "CC(O)C1C(CO)ON(Cc2cccc(C(=O)NC(CCc3ccccc3)CN(C)C)c2)C1C(=O)NC1CC2CC(C1C)C2(C)C (centres unmarked) [Compound 498]", "system-name": "UniProt:P10415", "pKi": "> 6.10"}
{"molecule": "CC(O)C1C(CO)ON(Cc2cccc(CN(Cc3ccccc3)C(Cc3ccccc3)CN(C)C)c2)C1C(=O)NC1CC2CC(C1C)C2(C)C (centres unmarked)", "system-name": "UniProt:P10415", "pKi": "> 6.10"}
{"molecule": "CC(O)C1C(CO)ON(Cc2cccc(CN(CCN(C)C)Cc3cccc(Oc4ccccc4)c3)c2)C1C(=O)NC1CC2CC(C1C)C2(C)C (centres unmarked)", "system-name": "UniProt:P10415", "pKi": "> 6.10"}
